Tested on: Trypanosoma cruzi
Test: Trypanosoma cruzi phosphomannomutase and mannose-1-phosphate guanylyltransferase assay
Assay type: functional
Parameters: scale not given: direction of the effect not stated beside the values
Details: 10 µM
MEASURED ATTRIBUTE: Percent Effect (%)

{"columns": ["COMPOUND", "MEASURED ATTRIBUTE", "TEST RESULT"],
 "data": [
  ["CCc1nnsc1C(=O)NCCn1nc2ccccn2c1=O", "Percent Effect", 5.66],
  ["CCN(CC)c1ccc(NS(=O)(=O)c2cncc(F)c2)cn1", "Percent Effect", 3.57],
  ["O=C(Cc1ccccc1Cl)N1CCCC(n2cncn2)C1 (stereo not drawn)", "Percent Effect", -2.91],
  ["CC(C)(CNC(=O)NCCOc1cccc(F)c1)C(N)=O", "Percent Effect", 0.94],
  ["NC(=O)CC1CCN(C(=O)CCOc2ccc(Cl)cc2)CC1", "Percent Effect", 0.752],
  ["CC(NC(=O)CCCOc1ccccc1)c1nnc2n1CCCCC2 (stereo not drawn)", "Percent Effect", 0.0943],
  ["CCN(CC)S(=O)(=O)N1CCCC(c2cccc(C(=O)O)c2)C1 (stereo not drawn)", "Percent Effect", 6.56],
  ["O=C(CSc1ncccn1)N1C[C@H]2CC[C@@H]1CN(Cc1ccncc1)C2", "Percent Effect", 6.46],
  ["Cc1cc(C)n(-c2cncc(NCCNC(=O)CC3CCCC3)n2)n1", "Percent Effect", 0.489],
  ["Cc1cnn(C2CCCN(C(=O)c3cnc4ccccc4n3)C2)c1 (stereo not drawn)", "Percent Effect", 1.04],
  ["CCC(=O)N1CCN(C(=O)CCn2cccn2)CC1", "Percent Effect", 6.96],
  ["Cc1cc(C)n(CC(=O)N2CCC(c3nc(C)no3)CC2)n1", "Percent Effect", 2.43],
  ["CCNc1cc2c(nn1)CCN(C(=O)Cc1c(C)noc1C)C2", "Percent Effect", -5.51],
  ["Cn1cc(CNCC2Cn3nnc(-c4ccccc4)c3CO2)cn1 (stereo not drawn)", "Percent Effect", 4.97],
  ["O=C(NCCN1CCCCC1)c1scnc1Cl", "Percent Effect", -5.7],
  ["Cn1cnc(-c2cc(C(=O)N3CCOCC3)c3ccccn23)c1", "Percent Effect", -3.42],
  ["CCCS(=O)(=O)N1CCC2(CC1)CN(c1ccccn1)CCO2", "Percent Effect", -11],
  ["CC(NC1(CNC(=O)Cn2cccn2)CCOCC1)c1ccccc1 (stereo not drawn)", "Percent Effect", 6.35],
  ["COc1ccc(N2CCC(C(=O)/N=c3/[nH]ccs3)CC2)nn1", "Percent Effect", 0.589],
  ["CC(=O)N1CCCN(Cc2csc(-c3ncccn3)n2)CC1", "Percent Effect", -3.02],
  ["Cn1cc(CN2CC[C@@H]3[C@@H](CCC(=O)N3CCC3=CCCCC3)C2)cn1", "Percent Effect", 0.992],
  ["c1ccc(Cn2cc3c(n2)C(COCC2CC2)OCC3)nc1 (stereo not drawn)", "Percent Effect", -4.24],
  ["Cc1cc(CN(C)C(=O)c2ccc(Cl)c(S(C)(=O)=O)c2)no1", "Percent Effect", 3.81],
  ["O=C(CCc1cccnc1)N1CCCC(n2cncn2)C1 (stereo not drawn)", "Percent Effect", 2.74],
  ["CCC(=O)NCCc1cc(N2CCN(C(C)=O)CC2)nc(C2CC2)n1", "Percent Effect", -6.72],
  ["O=C(CN(C1=NCCCC1)c1ccccc1)c1ccccc1", "Percent Effect", -3.21],
  ["CN(CCNC(=O)N1CCN(Cc2ccon2)CC1)c1ccccc1", "Percent Effect", -5.75],
  ["CCn1ccnc1CN1CCCC(CO)(Cc2cccc(Cl)c2)C1 (stereo not drawn)", "Percent Effect", 3.23],
  ["CNCC(=O)N1CC(c2cc(Nc3ncccn3)nc(C)n2)C1", "Percent Effect", -4.33],
  ["COc1ccc(C)cc1CN(C)Cc1nc2c(cnn2C)c(=O)[nH]1", "Percent Effect", 2.52],
  ["Cc1cc(NC(=O)NCc2cccnc2OC(C)C)n(C)n1", "Percent Effect", 0.103],
  ["NS(=O)(=O)CCNC(=O)C1(c2ccc(Br)cc2)CC1", "Percent Effect", 4.23],
  ["CC(C)CS(=O)(=O)CC(=O)N(C)Cc1ccc(OC(F)F)cc1", "Percent Effect", -1.74],
  ["CC(Cn1cccn1)NC(=O)N1CCN(Cc2cccnc2)CC1 (stereo not drawn)", "Percent Effect", 1.87],
  ["Cc1nc(CN2CCCC(CCNS(C)(=O)=O)C2)c[nH]1 (stereo not drawn)", "Percent Effect", -0.873],
  ["O=C(O)CCc1cccc(C2CCCN2Cc2ccc(F)c(F)c2)n1 (stereo not drawn)", "Percent Effect", 1.78],
  ["Cc1cc(N2CCC(CC(N)=O)CC2)nc(-c2ccncc2)n1", "Percent Effect", -1.87],
  ["N#Cc1ccccc1OCCN1CCCC1Cn1cccn1 (stereo not drawn)", "Percent Effect", 5.75],
  ["COCCN1CCN(C(=O)C2CC=CC2)Cc2cccnc21", "Percent Effect", 7.14],
  ["O=C(c1ccc[nH]1)N1CCC2(CC1)C(=O)Nc1ccccc12", "Percent Effect", 6.35],
  ["CS(=O)(=O)N1CCN(C(=O)Cn2ccc3c(Cl)cccc32)CC1", "Percent Effect", -7.08],
  ["c1cnc2c(c1)cc(C1CCOCC1)n2CCN1CCOCC1", "Percent Effect", 0.79],
  ["O=C(NCC1CC1)[C@H]1C[C@H]2OCC[C@H]2N(Cc2ccsc2)C1", "Percent Effect", -1.85],
  ["COCCN1CCN(Cc2cccc(C(=O)N(C)C)c2)CC1C (stereo not drawn)", "Percent Effect", -1.61],
  ["COCCC(=O)N1CCn2c(COCC3CC3)cnc2C1C (stereo not drawn)", "Percent Effect", -3.6],
  ["Fc1cccc(-c2nc(CN3CCOC(Cn4cncn4)C3)co2)c1 (stereo not drawn)", "Percent Effect", 8.97],
  ["Cc1cnccc1CN1CC[C@@](C)(O)[C@H](Oc2ccccc2)C1", "Percent Effect", 7.51],
  ["Cc1ccc(C(=O)N2CCN(CCc3cccs3)CC2)c(=O)[nH]1", "Percent Effect", -1.6]
]}

---

Biological target: Sialic acid-binding Ig-like lectin 9 (Homo sapiens) (UniProt Q9Y336)
Sequence (Q9Y336 whole entry): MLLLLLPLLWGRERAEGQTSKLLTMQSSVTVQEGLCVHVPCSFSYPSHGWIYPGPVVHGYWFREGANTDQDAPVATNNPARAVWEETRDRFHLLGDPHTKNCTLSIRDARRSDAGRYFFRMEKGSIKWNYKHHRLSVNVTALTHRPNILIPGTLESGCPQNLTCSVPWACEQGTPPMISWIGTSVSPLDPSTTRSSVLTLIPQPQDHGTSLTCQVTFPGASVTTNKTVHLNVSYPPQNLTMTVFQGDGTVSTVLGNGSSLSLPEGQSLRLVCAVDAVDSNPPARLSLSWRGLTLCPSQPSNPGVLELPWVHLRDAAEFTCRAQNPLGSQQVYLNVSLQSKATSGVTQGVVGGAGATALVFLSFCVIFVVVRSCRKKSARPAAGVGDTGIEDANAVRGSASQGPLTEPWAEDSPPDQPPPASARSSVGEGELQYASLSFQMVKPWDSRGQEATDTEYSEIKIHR
Experiment: Hs-Siglec9 ALPHAscreen SOP 20170721
Design: scale not given: direction of the effect not stated beside the values
Conditions: 10 µM

{"columns": ["COMPOUND", "Percent Effect, %"],
 "data": [
  ["c1cnn(CC2CN(Cc3noc(C4CC4)n3)CCO2)c1 (stereo unspecified)", 4.59],
  ["Cn1cc(CN2C[C@@H]3COC[C@]3(CNC(=O)c3ccsc3)C2)cn1", 16.9],
  ["Cc1nc(C2CCN(C(=O)CO)CC2)cc(N2CCOCC2)n1", 8.92],
  ["CCc1nc(C2CCCN2C(=O)C2=COCC2)no1 (stereo unspecified)", 1.81],
  ["Cc1ccccc1N1CCCN(C(=O)CCCS(N)(=O)=O)CC1", 2.05],
  ["O=C(N1CCCC1)N1CCc2ncnc(C3CCOC3)c2CC1 (stereo unspecified)", 2.99]
]}

---

Target: Tyrosyl-tRNA synthetase, putative (Trypanosoma cruzi (strain CL Brener))
Experiment: Trypanosoma cruzi tyrosyl tRNA synthetase (TcYRS) SOP
Format: functional
Set-up: scale not given: direction of the effect not stated beside the values
Conditions: 30 µM
Assign YES to entries whose Percent Effect meets or exceeds 10%; assign NO to the rest.

{"columns": ["COMPOUND", "TARGET OR SYSTEM", "CLASSIFICATION"],
 "data": [
  ["Cc1cc(C)n(CC(=O)N2CCC(c3nc(C)no3)CC2)n1", "Tyrosyl-tRNA synthetase, putative (Trypanosoma cruzi (strain CL Brener))", "NO"],
  ["Cn1ccnc1C(NCc1csc(Br)c1)c1ccccc1 (centres undefined)", "Tyrosyl-tRNA synthetase, putative (Trypanosoma cruzi (strain CL Brener))", "YES"],
  ["CC(CN1CCOCC1)NC(=O)NCc1ccc(Cl)s1 (centres undefined)", "Tyrosyl-tRNA synthetase, putative (Trypanosoma cruzi (strain CL Brener))", "YES"],
  ["C[C@H]1C[C@H]2CN(C(=O)c3ccncn3)CC[C@H]2O1", "Tyrosyl-tRNA synthetase, putative (Trypanosoma cruzi (strain CL Brener))", "NO"],
  ["Cc1cnccc1CN1C[C@@H](O)[C@H](Oc2ccccc2)C1", "Tyrosyl-tRNA synthetase, putative (Trypanosoma cruzi (strain CL Brener))", "NO"],
  ["O=C(NCCCN1CCOCC1)c1ccn(-c2ccc3ccccn23)n1", "Tyrosyl-tRNA synthetase, putative (Trypanosoma cruzi (strain CL Brener))", "NO"],
  ["CCN1CCC(NC(=O)CN2CCc3c(nc(C4CC4)n3C)C2)CC1", "Tyrosyl-tRNA synthetase, putative (Trypanosoma cruzi (strain CL Brener))", "NO"],
  ["CC(C)(C)n1cc(C(=O)N2CCN(Cc3ccsc3)CC2)cn1", "Tyrosyl-tRNA synthetase, putative (Trypanosoma cruzi (strain CL Brener))", "YES"],
  ["Cc1ccc(N(CC(=O)c2ccc(Br)cc2)C2=NCCCCC2)cc1", "Tyrosyl-tRNA synthetase, putative (Trypanosoma cruzi (strain CL Brener))", "NO"],
  ["COc1cccc(-n2nnc(C(=O)N3CCCC3)c2C)c1", "Tyrosyl-tRNA synthetase, putative (Trypanosoma cruzi (strain CL Brener))", "YES"],
  ["CC(C)NC(=O)Nc1ccc(CNCc2cccc(C#N)c2)cc1", "Tyrosyl-tRNA synthetase, putative (Trypanosoma cruzi (strain CL Brener))", "YES"],
  ["CS(=O)(=O)N1CCC2(CC1)CC(CC(=O)N1CCCC1)c1ccccc12 (centres undefined)", "Tyrosyl-tRNA synthetase, putative (Trypanosoma cruzi (strain CL Brener))", "NO"],
  ["Cn1ccnc1N1CCN(C(=O)Cc2ccc(F)cc2)CC1", "Tyrosyl-tRNA synthetase, putative (Trypanosoma cruzi (strain CL Brener))", "YES"],
  ["CCc1noc(CNc2ccc(C(=O)N3CCCC(C)C3)cc2C)n1 (centres undefined)", "Tyrosyl-tRNA synthetase, putative (Trypanosoma cruzi (strain CL Brener))", "NO"],
  ["c1ccc(OCCCN2CCN(c3ccc4nncn4n3)CC2)cc1", "Tyrosyl-tRNA synthetase, putative (Trypanosoma cruzi (strain CL Brener))", "YES"],
  ["N#Cc1c(C2CC2)cc(-c2ccc(O)cc2)nc1N", "Tyrosyl-tRNA synthetase, putative (Trypanosoma cruzi (strain CL Brener))", "NO"],
  ["Cc1csc(CNC(=O)Nc2cc(C(F)(F)F)c[nH]c2=O)n1", "Tyrosyl-tRNA synthetase, putative (Trypanosoma cruzi (strain CL Brener))", "YES"],
  ["CCS(=O)(=O)c1ccccc1N1CCC(NC(C)=O)CC1", "Tyrosyl-tRNA synthetase, putative (Trypanosoma cruzi (strain CL Brener))", "YES"],
  ["Cn1cccc1C(=O)N1CCc2ncc(Cn3cccn3)n2CC1", "Tyrosyl-tRNA synthetase, putative (Trypanosoma cruzi (strain CL Brener))", "NO"],
  ["Cc1noc(C(C)C)c1C(=O)NCCCOC(C)C", "Tyrosyl-tRNA synthetase, putative (Trypanosoma cruzi (strain CL Brener))", "NO"],
  ["Cc1nc(CN2CCCC(NCCOc3ccccc3)C2)no1 (centres undefined)", "Tyrosyl-tRNA synthetase, putative (Trypanosoma cruzi (strain CL Brener))", "NO"],
  ["Cc1cnn(C2CCCN(C(=O)CCCOc3cccc(F)c3)C2)c1 (centres undefined)", "Tyrosyl-tRNA synthetase, putative (Trypanosoma cruzi (strain CL Brener))", "NO"],
  ["FC(F)(F)Cn1ccnc1CN1CCOC(Cn2cccn2)C1 (centres undefined)", "Tyrosyl-tRNA synthetase, putative (Trypanosoma cruzi (strain CL Brener))", "YES"],
  ["O=C(c1cccs1)N1C[C@H]2CC[C@@]3(N=C(c4ccccc4)NC3=O)[C@H]2C1", "Tyrosyl-tRNA synthetase, putative (Trypanosoma cruzi (strain CL Brener))", "YES"]
]}

Data credit: ChEMBL document CHEMBL3988442
